molecular target: TGF-beta receptor type-1 (Homo sapiens); assay: Inhibition of TGFbetaR1-mediated smad phosphorylation in human HaCaT cells at 1 uM measured within 24 hrs by dual-luciferase reporter gene assay
measured-metric: inhibition (%)

Study these solved cases before continuing.
| compound | inhibition / % |
| --- | --- |
| O=C(O)CC1c2[nH]c3ccccc3c2CCN1C(=O)Cc1ccccc1 (stereo unspecified) | 4.1 |
| COC(=O)CC1c2[nH]c3ccccc3c2CCN1C(=O)Cc1ccccc1 (stereo unspecified) | 18.2 |
| CCN(CC)c1ccc(CC(=O)N2CCc3c([nH]c4ccccc34)C2)cc1 | 49 |
| CC1c2[nH]c3ccc(O)cc3c2CCN1C(=O)Cc1ccccc1 (stereo unspecified) | 11.2 |
| CC(C)(C)OC(=O)NC(Cc1ccccc1)C(=O)N1CCc2c([nH]c3ccccc23)C1 (stereo unspecified) | 44.3 |

I. O=C(Cc1ccccc1)N1CCc2c([nH]c3ccccc23)C1c1ccccc1 (stereo unspecified)
II. O=C(Cc1ccccc1)N1CCc2c([nH]c3ccccc23)C1
Prompt: Of the two listed items, I and II , which carries the larger inhibition figure? Let me know the label of the one you choose.
Completion: II

a. O=C(C(O)c1ccccc1)N1CCc2c([nH]c3ccccc23)C1 (stereo unspecified)
b. O=C(Cc1cccc(O)c1)N1CCc2c([nH]c3ccccc23)C1
c. O=C(c1ccccn1)N1CCc2c([nH]c3ccccc23)C1
d. CCC1c2[nH]c3ccccc3c2CCN1C(=O)Cc1ccccc1 (stereo unspecified)
Prompt: Arrange the 4 compounds from largest to smallest inhibition. List the labels in the requested order.
Completion: d, b, a, c
(d: 52.1%, b: 29.1%, a: 12.9%, c: 1.1%)
